Target: 5-hydroxytryptamine receptor 4 (Homo sapiens, UniProt Q13639)
Sequence (Q13639 whole entry): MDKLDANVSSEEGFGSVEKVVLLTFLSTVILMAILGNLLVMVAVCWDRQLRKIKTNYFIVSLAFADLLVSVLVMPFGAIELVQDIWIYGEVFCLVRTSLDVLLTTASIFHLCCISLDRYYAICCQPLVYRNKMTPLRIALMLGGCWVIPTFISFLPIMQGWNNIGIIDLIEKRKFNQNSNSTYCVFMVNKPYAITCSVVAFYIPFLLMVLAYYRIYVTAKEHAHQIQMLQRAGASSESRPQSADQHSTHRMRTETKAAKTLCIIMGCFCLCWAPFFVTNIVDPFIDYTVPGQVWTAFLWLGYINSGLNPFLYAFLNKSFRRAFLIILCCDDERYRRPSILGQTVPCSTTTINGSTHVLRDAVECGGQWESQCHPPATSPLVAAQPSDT
Experiment: Agonist activity at human 5HT4C receptor expressed at 100 fold physiological-level in HEK293 cells assessed as cAMP accumulation
Format: functional, cell-based
property measured: EC50 (nM)
Respond numerically; units are nM and should not be typed.

Lookup: GET /values?readout=EC50&item= `CC(C)n1nc(C(=O)N[C@H]2C[C@H]3CC[C@@H](C2)N3CCCCCCN2CCCCC2)c2ccccc21`
Found: 2.51

----------
Quick list: Intrinsic activity per entry.
Target: 5-hydroxytryptamine receptor 4 (Homo sapiens, UniProt Q13639)
Assay: Intrinsic activity at human 5HT4C receptor expressed at 100 fold physiological-level in HEK293 cells assessed as cAMP accumulation relative to 5HT
Assay type: functional, cell-based
Respond numerically; units are % and should not be typed.

// worked examples, Intrinsic activity included
INSERT INTO measurements (compound, property_measured, quantity_unit, measured_number) VALUES
  ('CC(C)n1nc(C(=O)N[C@H]2C[C@H]3CC[C@@H](C2)N3CC(O)CN2CCN(S(C)(=O)=O)CC2)c2ccccc21 (some centres undefined)', 'Intrinsic activity', '%', 95),
  ('CC(C)N(C)CC(O)CN1[C@@H]2CC[C@H]1C[C@@H](NC(=O)c1nn(C(C)C)c3ccccc13)C2 (some centres undefined)', 'Intrinsic activity', '%', 78),
  ('CC(C)n1nc(C(=O)N[C@H]2C[C@H]3CC[C@@H](C2)N3CC(O)CN2CCCCC2)c2ccccc21 (some centres undefined)', 'Intrinsic activity', '%', 85);

Would you kindly look at the next entry?
Lookup: GET /values?readout=Intrinsic activity&item= `CC(C)n1nc(C(=O)N[C@H]2C[C@H]3CC[C@@H](C2)N3CCCCCCN2CCN(S(C)(=O)=O)CC2)c2ccccc21`
Found: 75

----------
Test: Permeability across human Caco2 cells
Type: ADME, cell-based
Conditions: Caco-2, read-out: Kp
property measured: Papp (×10⁻⁶ cm/s)
Respond numerically; units are ×10⁻⁶ cm/s and should not be typed.

// worked examples, Papp included
INSERT INTO measurements (compound, measured_number) VALUES
  ('CC(C)n1nc(C(=O)N[C@H]2C[C@H]3CC[C@@H](C2)N3C[C@@H](O)CN2CCN(S(C)(=O)=O)CC2)c2ccccc21', 19),
  ('CC(C)n1nc(C(=O)N[C@H]2C[C@H]3CC[C@@H](C2)N3CC(O)CN2CCCCC2)c2ccccc21 (some centres undefined)', 30);

Lookup: GET /values?readout=Papp&item= COC[C@@H]1CCCN1CC(O)CN1[C@@H]2CC[C@H]1C[C@@H](NC(=O)c1nn(C(C)C)c3ccccc13)C2 (some centres undefined)
Found: 48

Lookup: Same thing, different compound: CC(C)n1nc(C(=O)N[C@H]2C[C@H]3CC[C@@H](C2)N3CC(O)CN2CCN(S(C)(=O)=O)CC2)c2ccccc21 (some centres undefined)
Found: 19

----------
Molecular target: UniProtKB Q13639
Test: Agonist activity at human 5HT4C receptor expressed in a cell line expressing receptor at 10 fold physiological-level assessed as cAMP accumulation
Format: functional
property measured: EC50 (nM)
Respond numerically; units are nM and should not be typed.

INSERT INTO assay_data (structure_notation, quantity_unit, measured_number) VALUES
  ('CC(=O)N1CCN(CCN2[C@@H]3CC[C@H]2C[C@@H](NC(=O)c2nn(C(C)C)c4ccccc24)C3)CC1', 'nM', 10);

Lookup: GET /values?readout=EC50&item= `CC(C)n1c(=O)c(C(=O)N[C@H]2C[C@H]3CC[C@@H](C2)N3C[C@@H](O)CN2CCN(S(C)(=O)=O)CC2)cc2ccccc21`
Found: 2

----------
Quick list: half-life per entry.
Test: Half life in rat liver microsomes
Assay type: ADME, Microsome
Settings: liver microsomes

Lookup: GET /values?readout=half-life&item= CC(C)N(C)CC(O)CN1[C@@H]2CC[C@H]1C[C@@H](NC(=O)c1nn(C(C)C)c3ccccc13)C2 (some centres undefined)
Found: > 1.5 h

Lookup: Same thing, different compound: CC(C)n1nc(C(=O)N[C@H]2C[C@H]3CC[C@@H](C2)N3CC(O)CN2CCC(CNS(C)(=O)=O)CC2)c2ccccc21 (some centres undefined)
Found: > 1.5 h

Lookup: Same thing, different compound: `CC(C)n1nc(C(=O)N[C@H]2C[C@H]3CC[C@@H](C2)N3C[C@@H](O)CN2CCN(S(C)(=O)=O)CC2)c2ccccc21`
Found: > 1.5 h

Lookup: Same thing, different compound: `CC(C)n1nc(C(=O)N[C@H]2C[C@H]3CC[C@@H](C2)N3C[C@H](O)CN2CCN(S(C)(=O)=O)CC2)c2ccccc21`
Found: > 1.5 h

Lookup: Same thing, different compound: COC[C@@H]1CCCN1CC(O)CN1[C@@H]2CC[C@H]1C[C@@H](NC(=O)c1nn(C(C)C)c3ccccc13)C2 (some centres undefined)
Found: 1.25 h

Lookup: Same thing, different compound: CC(C)n1nc(C(=O)N[C@H]2C[C@H]3CC[C@@H](C2)N3CC(O)CN2CCCCC2)c2ccccc21 (some centres undefined)
Found: > 1.5 h

----------
Species: Homo sapiens
Assay: Selectivity ratio of Ki for human 5HT3A receptor to Ki for human 5HT4C receptor
Assign labels as follows, please: y for Ratio Ki below 6000; n for Ratio Ki equal to or exceeding 6000.

Take a look at these entries with their results.
INSERT INTO measurements (molecule, class_name) VALUES
  ('CC(C)n1nc(C(=O)N[C@H]2C[C@H]3CC[C@@H](C2)N3CC(O)CN2CCN(S(C)(=O)=O)CC2)c2ccccc21 (some centres not stated)', 'n'),
  ('CC(C)n1nc(C(=O)N[C@H]2C[C@H]3CC[C@@H](C2)N3CC(O)CN2CCCCC2)c2ccccc21 (some centres not stated)', 'n'),
  ('CC(C)n1nc(C(=O)N[C@H]2C[C@H]3CC[C@@H](C2)N3CCCCCCN2CCN(S(C)(=O)=O)CC2)c2ccccc21', 'y'),
  ('CC(C)n1nc(C(=O)N[C@H]2C[C@H]3CC[C@@H](C2)N3)c2ccccc21', 'y'),
  ('CC(C)n1nc(C(=O)N[C@H]2C[C@H]3CC[C@@H](C2)N3CC(O)CN2CCC(CNS(C)(=O)=O)CC2)c2ccccc21 (some centres not stated)', 'n');

Okay, next one:
Lookup: Does the reported Ratio Ki of the following molecule sit strictly below 6000? `CC(C)n1nc(C(=O)N[C@H]2C[C@H]3CC[C@@H](C2)N3CCCCCCN2CCCCC2)c2ccccc21`
Found: y

----------
Experiment: Half life in Sprague-Dawley rat at 5 mg/kg, po
Assay type: ADME, organism-based
Design: dose 5 mg/kg, route oral
Details: in vivo
Quick list: half-life per entry.
Respond numerically; units are h and should not be typed.

// worked examples, half-life included
INSERT INTO results (structure_notation, property_measured, measured_number) VALUES
  ('CC(C)n1nc(C(=O)N[C@H]2C[C@H]3CC[C@@H](C2)N3C[C@@H](O)CN2CCN(S(C)(=O)=O)CC2)c2ccccc21', 'half-life', 7.4),
  ('CC(=O)N1CCN(CCN2[C@@H]3CC[C@H]2C[C@@H](NC(=O)c2nn(C(C)C)c4ccccc24)C3)CC1', 'half-life', 3.2);

Would you kindly look at the next entry?
Lookup: GET /values?readout=half-life&item= `CC(C)n1nc(C(=O)N[C@H]2C[C@H]3CC[C@@H](C2)N3CCN2CCN(S(C)(=O)=O)CC2)c2ccccc21`
Found: 1.8

----------
Molecular target: 5-hydroxytryptamine receptor 4 (Homo sapiens)
Test: Intrinsic activity at human 5HT4C receptor expressed at 100 fold physiological-level in HEK293 cells assessed as cAMP accumulation relative to 5HT
Assay type: functional, cell-based
Quick list: Intrinsic activity per entry.
Respond numerically; units are % and should not be typed.

// worked examples, Intrinsic activity included
INSERT INTO assay_data (compound, property_measured, quantity_unit, measured_number) VALUES
  ('CC(C)n1nc(C(=O)N[C@H]2C[C@H]3CC[C@@H](C2)N3CC(O)CN2CCC(CNS(C)(=O)=O)CC2)c2ccccc21 (some centres not stated)', 'Intrinsic activity', '%', 93),
  ('CC(C)N(C)CCCCCCN1[C@@H]2CC[C@H]1C[C@@H](NC(=O)c1nn(C(C)C)c3ccccc13)C2', 'Intrinsic activity', '%', 92),
  ('CC(C)n1nc(C(=O)N[C@H]2C[C@H]3CC[C@@H](C2)N3CCN2CCN(S(C)(=O)=O)CC2)c2ccccc21', 'Intrinsic activity', '%', 88),
  ('CC(C)n1nc(C(=O)N[C@H]2C[C@H]3CC[C@@H](C2)N3C[C@@H](O)CN2CCN(S(C)(=O)=O)CC2)c2ccccc21', 'Intrinsic activity', '%', 86),
  ('COC[C@@H]1CCCN1CC(O)CN1[C@@H]2CC[C@H]1C[C@@H](NC(=O)c1nn(C(C)C)c3ccccc13)C2 (some centres not stated)', 'Intrinsic activity', '%', 108),
  ('CC(C)n1nc(C(=O)N[C@H]2C[C@H]3CC[C@@H](C2)N3C[C@H](O)CN2CCN(S(C)(=O)=O)CC2)c2ccccc21', 'Intrinsic activity', '%', 94),
  ('CCCCCNC(=N)N/N=C/c1c[nH]c2ccc(OC)cc12 [TEGASEROD]', 'Intrinsic activity', '%', 115),
  ('CC(=O)N1CCN(CCN2[C@@H]3CC[C@H]2C[C@@H](NC(=O)c2nn(C(C)C)c4ccccc24)C3)CC1', 'Intrinsic activity', '%', 83);

Lookup: GET /values?readout=Intrinsic activity&item= `COC[C@@H]1CCCN1CCCCCCN1[C@@H]2CC[C@H]1C[C@@H](NC(=O)c1nn(C(C)C)c3ccccc13)C2`
Found: 117

Lookup: Same thing, different compound: COc1cc(N)c(Cl)cc1C(=O)N[C@H]1CCN(CCCOc2ccc(F)cc2)C[C@H]1OC (relative stereo) [REL-CISAPRIDE]
Found: 117

Lookup: Same thing, different compound: `CC(C)n1nc(C(=O)N[C@H]2C[C@H]3CC[C@@H](C2)N3CCCCCCN2CCC(CNS(C)(=O)=O)CC2)c2ccccc21`
Found: 91

Lookup: Same thing, different compound: `CC(C)n1nc(C(=O)N[C@H]2C[C@H]3CC[C@@H](C2)N3CCCCCCN2CCCCC2)c2ccccc21`
Found: 102
